system: P388 leukemia ip, CD2F1 mice, survival T/C; assay: NCI In Vivo Anticancer Drug Screen. Data for tumor model P388 Leukemia (intraperitoneal) in CD2F1 (CDF1) mice; settings: endpoint: median survival time; dose: 50.0 mg/kg/injection; schedule: Q01DX009 (ip); vehicle: saline with Tween-80; higher = longer survival
Inconclusive results and toxic doses are left out.
Each item that follows carries a reported T/C.

Please review the entries below; each comes with its answer.
COc1ccc(NC2=NC(C)(CO)CS2)cc1 (stereo unspecified) = 116 % of control
O=C(NC1CCCCC1)NS(=O)(=O)c1ccc(CCNC(=O)c2cccc3c2OCC3)cc1 = 100 % of control
Cc1ccc(NC(=O)Oc2ccc(C(C)(C)C)cc2Br)c([N+](=O)[O-])c1 = 96 % of control
CC1C(=O)CCC2(C)C1CCC1C3CCC(O)C3(C)CCC12 (stereo unspecified) = 95 % of control
CN1CCN(CCCN2c3ccccc3Sc3ccc(C(F)(F)F)cc32)CC1 = 118 % of control

# next molecule below
// query Give the reported T/C for Oc1c(Cl)cc(Cl)cc1C1CC(c2ccccc2Cl)=NN1c1ccccc1 (stereo unspecified) (system: P388 leukemia ip, CD2F1 mice, survival T/C).
// result 96 % of control

These measurements were taken from PubChem BioAssay AID330.
